experimental details: Metabolic stability in human liver microsomes assessed as parent compound remaining in the presence of NADPH generating system by HPLC-UVMS analysis
Format: ADME, Microsome
measured quantity: Stability (%)

sample smiles | measured quantity | readout unit | recorded measurement
CNC(=O)NC(=N)NCCCCCCCCN1CCCc2ccccc2COc2ccc(OC)cc2CNC(=N)NC1=O | Stability | % | 98.7
CNC(=O)NC(=N)NCCCCCCCCN1CCCc2cc(Cl)ccc2COc2ccccc2CNC(=N)NC1=O | Stability | % | 91.5
CNC(=O)NC(=N)NCCCCCCCCN1CCCc2ccc(F)cc2COc2ccccc2CNC(=N)NC1=O | Stability | % | 98.5
CNC(=O)NC(=N)NCCCCCCCCN1CCCc2ccccc2COc2ccccc2CNC(=N)NC1=O | Stability | % | 76.2
CNC(=O)NC(=N)NCCCCCCCCN1CCCCCOc2ccccc2CNC(=N)NC1=O | Stability | % | 80.9

These entries and their values trace back to ChEMBL document CHEMBL5252667.
